Below: a set of entries, each annotated with reported IC50.
- Tested on: L6
- assay_procedure: DNDI: Cytotoxicity against L-6 rat myoblasts from skeletal muscle cells
- reported_conditions: L6 rat skeletal muscle myoblast cells
readout_label: IC50 (µM)

{"compound": "CC(C)C(=O)Nc1ncc(C(O)(c2ccc(Cl)cc2)c2cccnc2)s1 (stereo not drawn)", "readout_label": "IC50", "observed": 56.6}
{"compound": "OC(c1ccc(Cl)cc1)(c1ccc(Br)cc1)c1cncnc1 (stereo not drawn)", "readout_label": "IC50", "observed": 58.7}
{"compound": "OC(c1ccc(C(F)(F)F)cc1)(c1ccc(C(F)(F)F)cc1)c1cccnc1", "readout_label": "IC50", "observed": 50.6}
